test description: Selectivity index, ratio of CC50 for mosquito C6/36 cells to EC50 for DENV serotype 2 NGC
Measured Ratio CC50/EC50 accompanies every entry in the list below.
Response field accepts a number only; no unit should be typed.

So what does the record say about Ratio CC50/EC50 for O=c1ccn([C@@H]2O[C@H](COC(c3ccccc3)(c3ccccc3)c3ccccc3)[C@@H](O)[C@H]2O)c(=O)[nH]1 ?
1.67

Need Ratio CC50/EC50 of O=c1[nH]cnc2c1ncn2[C@@H]1O[C@H](COC(c2ccccc2)(c2ccccc2)c2ccccc2)[C@@H](OC(c2ccccc2)(c2ccccc2)c2ccccc2)[C@H]1O , thanks.
6.6

Value lookup for Ratio CC50/EC50; key = O=c1[nH]c(=O)n([C@@H]2O[C@H](COC(c3ccccc3)(c3ccccc3)c3ccccc3)[C@@H](O)[C@H]2OC(c2ccccc2)(c2ccccc2)c2ccccc2)cc1Cl
1.75

* * *

test description: Cytotoxicity against african green monkey Vero cells after 1 week
Format: cell-based
run conditions: chlorocebus sabaeus
Reported values of log10 CC50 at 168 h for individual entries
# log10 transformed; quantity=CC50 at 168 h; unit=µM

So what's the measured log10 CC50 at 168 h for this one? Cc1cn([C@H]2C[C@H](OC(c3ccccc3)(c3ccccc3)c3ccccc3)[C@@H](COC(c3ccccc3)(c3ccccc3)c3ccccc3)O2)c(=O)[nH]c1=O
1.85

Next:
Reported log10 CC50 at 168 h for O=c1[nH]cnc2c1ncn2[C@@H]1O[C@H](COC(c2ccccc2)(c2ccccc2)c2ccccc2)[C@@H](OC(c2ccccc2)(c2ccccc2)c2ccccc2)[C@H]1O : what is it?
1.00

* * *

Test system: dengue virus type 2
test description: Antiviral activity against DENV serotype 2 NGC infected in mosquito C6/36 cells assessed as inhibition of virus-induced cytopathic effect after 1 week
Format: functional, organism-based
run conditions: C6/36, 168 h
metric: log10(EC50) (log10 of the value in µM)
Reminder: these figures are log10 of reported EC50, in µM before transformation.

Record excerpt, results attached:
// query log10(EC50) value for entry O=c1[nH]cnc2c1ncn2[C@@H]1O[C@H](COC(c2ccccc2)(c2ccccc2)c2ccccc2)[C@@H](OC(c2ccccc2)(c2ccccc2)c2ccccc2)[C@H]1O
0.18

Entry O=c1ccn([C@@H]2O[C@H](COC(c3ccccc3)(c3ccccc3)c3ccccc3)[C@@H](O)[C@H]2O)c(=O)[nH]1 : reported log10(EC50) = ?
0.78

Quick one: log10(EC50) of O=c1ccn([C@@H]2O[C@H](COC(c3ccccc3)(c3ccccc3)c3ccccc3)[C@@H](OC(c3ccccc3)(c3ccccc3)c3ccccc3)[C@H]2O)c(=O)[nH]1 ?
0.24

Request the reported log10(EC50) associated with O=c1ccn([C@H]2C[C@H](OC(c3ccccc3)(c3ccccc3)c3ccccc3)[C@@H](COC(c3ccccc3)(c3ccccc3)c3ccccc3)O2)c(=O)[nH]1
0.57

// query log10(EC50) value for entry O=c1ccn([C@@H]2O[C@H](COC(c3ccccc3)(c3ccccc3)c3ccccc3)[C@@H](O)[C@H]2OC(c2ccccc2)(c2ccccc2)c2ccccc2)c(=O)[nH]1
1.48

---
Any idea what its log10(EC50) is? The compound is O=c1[nH]c(=O)n([C@@H]2O[C@H](COC(c3ccccc3)(c3ccccc3)c3ccccc3)[C@@H](O)[C@H]2OC(c2ccccc2)(c2ccccc2)c2ccccc2)cc1Cl
1.23

* * *

test description: Cytotoxicity against mosquito C6/36 cells after 1 week
Format: cell-based
run conditions: aedes albopictus
Recorded CC50 at 168 h by entry
Numbers only here, please. The scale is µM.

// worked examples, CC50 at 168 h included
Look at this compound and give its reported CC50 at 168 h. O=c1[nH]c(=O)n([C@@H]2O[C@H](COC(c3ccccc3)(c3ccccc3)c3ccccc3)[C@@H](O)[C@H]2OC(c2ccccc2)(c2ccccc2)c2ccccc2)cc1Cl
30

Item under review: O=c1[nH]c(=O)n([C@@H]2O[C@H](CO)[C@@H](O)[C@H]2OC(c2ccccc2)(c2ccccc2)c2ccccc2)cc1Cl . Reported CC50 at 168 h?
30

Can you share its CC50 at 168 h? I mean this compound: O=c1[nH]cnc2c1ncn2[C@@H]1O[C@H](COC(c2ccccc2)(c2ccccc2)c2ccccc2)[C@@H](O)[C@H]1OC(c1ccccc1)(c1ccccc1)c1ccccc1
6

---
Name the recorded CC50 at 168 h for O=c1ccn([C@H]2C[C@H](OC(c3ccccc3)(c3ccccc3)c3ccccc3)[C@@H](CO)O2)c(=O)[nH]1 .
5

* * *

test description: Cytotoxicity against mosquito C6/36 cells after 1 week
Format: cell-based
run conditions: aedes albopictus
Quick rule for you: CC50 at 168 h under 8 µM gets TRUE, anything else gets FALSE.

Worked set:
hey, is CC50 at 168 h for O=c1[nH]c(=O)n([C@@H]2O[C@H](COC(c3ccccc3)(c3ccccc3)c3ccccc3)[C@@H](OC(c3ccccc3)(c3ccccc3)c3ccccc3)[C@H]2O)cc1Cl lower than 8 µM or not?
TRUE

Please let me know if O=c1ccn([C@@H]2O[C@H](COC(c3ccccc3)(c3ccccc3)c3ccccc3)[C@@H](OC(c3ccccc3)(c3ccccc3)c3ccccc3)[C@H]2O)c(=O)[nH]1 shows CC50 at 168 h below 8 µM.
FALSE

Report whether reported CC50 at 168 h is lower than 8 µM (strictly) for Cc1cn([C@H]2C[C@H](OC(c3ccccc3)(c3ccccc3)c3ccccc3)[C@@H](COC(c3ccccc3)(c3ccccc3)c3ccccc3)O2)c(=O)[nH]c1=O
FALSE

Further cases:
Quick check: CC50 at 168 h of Cc1cn([C@H]2C[C@H](O)[C@@H](COC(c3ccccc3)(c3ccccc3)c3ccccc3)O2)c(=O)[nH]c1=O under 8 µM?
TRUE

Consider the compound O=c1ccn([C@@H]2O[C@H](CO)[C@@H](OC(c3ccccc3)(c3ccccc3)c3ccccc3)[C@H]2O)c(=O)[nH]1 . Is its CC50 at 168 h strictly less than 8 µM?
FALSE

* * *

Parameter: CC50 at 168 h. Scope: all listed entries.
test description: Cytotoxicity against mosquito C6/36 cells after 1 week
Format: cell-based
run conditions: aedes albopictus
// return numeric value only (unit: µM, not printed)

Can you share its CC50 at 168 h? I mean this compound: O=c1ccn([C@@H]2O[C@H](CO)[C@@H](O)[C@H]2OC(c2ccccc2)(c2ccccc2)c2ccccc2)c(=O)[nH]1
40

# CC50 at 168 h lookup, item O=c1[nH]c(=O)n([C@@H]2O[C@H](COC(c3ccccc3)(c3ccccc3)c3ccccc3)[C@@H](O)[C@H]2O)cc1Cl
5

Sample O=c1ccn([C@@H]2O[C@H](COC(c3ccccc3)(c3ccccc3)c3ccccc3)[C@@H](O)[C@H]2O)c(=O)[nH]1 — what was its CC50 at 168 h?
10

Given the entry O=c1[nH]cnc2c1ncn2[C@@H]1O[C@H](COC(c2ccccc2)(c2ccccc2)c2ccccc2)[C@@H](OC(c2ccccc2)(c2ccccc2)c2ccccc2)[C@H]1O , report its measured CC50 at 168 h.
10

Which value of CC50 at 168 h has been reported for Oc1ncnc2c1ncn2[C@@H]1O[C@H](COC(c2ccccc2)(c2ccccc2)c2ccccc2)[C@@H](O)[C@H]1O in the records?
30

Look at this compound and give its reported CC50 at 168 h. Cc1cn([C@H]2C[C@H](OC(c3ccccc3)(c3ccccc3)c3ccccc3)[C@@H](CO)O2)c(=O)[nH]c1=O
10

* * *

test description: Cytotoxicity against african green monkey Vero cells after 1 week
Format: cell-based
run conditions: chlorocebus sabaeus
metric: CC50 at 168 h (µM)
Report as a plain number; the unit µM is understood.

Illustrative cases are given below, each with its answer.
Entry under review: O=c1ccn([C@H]2C[C@H](OC(c3ccccc3)(c3ccccc3)c3ccccc3)[C@@H](CO)O2)c(=O)[nH]1 . Reported CC50 at 168 h?
4

Given the entry O=c1ccn([C@@H]2O[C@H](CO)[C@@H](OC(c3ccccc3)(c3ccccc3)c3ccccc3)[C@H]2O)c(=O)[nH]1 , report its measured CC50 at 168 h.
18

If you can, please state the reported CC50 at 168 h value of O=c1ccn([C@@H]2O[C@H](CO)[C@@H](O)[C@H]2OC(c2ccccc2)(c2ccccc2)c2ccccc2)c(=O)[nH]1 .
35

Request the reported CC50 at 168 h associated with O=c1ccn([C@@H]2O[C@H](COC(c3ccccc3)(c3ccccc3)c3ccccc3)[C@@H](O)[C@H]2O)c(=O)[nH]1
18

# CC50 at 168 h lookup, item O=c1ccn([C@H]2C[C@H](O)[C@@H](COC(c3ccccc3)(c3ccccc3)c3ccccc3)O2)c(=O)[nH]1
5

Kindly consider the entry below.
What does the record list as CC50 at 168 h for O=c1[nH]c(=O)n([C@@H]2O[C@H](COC(c3ccccc3)(c3ccccc3)c3ccccc3)[C@@H](O)[C@H]2O)cc1Cl ?
5

* * *

test description: Selectivity index, ratio of CC50 for mosquito C6/36 cells to EC50 for DENV serotype 2 NGC
metric: Ratio CC50/EC50

As a guide, the following entries are already answered.
Which Ratio CC50/EC50 reading was recorded for the compound O=c1ccn([C@H]2C[C@H](OC(c3ccccc3)(c3ccccc3)c3ccccc3)[C@@H](COC(c3ccccc3)(c3ccccc3)c3ccccc3)O2)c(=O)[nH]1 ?
>17

Consider the compound shown here: O=c1ccn([C@@H]2O[C@H](COC(c3ccccc3)(c3ccccc3)c3ccccc3)[C@@H](OC(c3ccccc3)(c3ccccc3)c3ccccc3)[C@H]2O)c(=O)[nH]1 What is its recorded Ratio CC50/EC50?
>5

The record that follows has no Ratio CC50/EC50 shown yet.
Record request: Ratio CC50/EC50 value, item O=c1ccn([C@@H]2O[C@H](COC(c3ccccc3)(c3ccccc3)c3ccccc3)[C@@H](O)[C@H]2OC(c2ccccc2)(c2ccccc2)c2ccccc2)c(=O)[nH]1
>3

Origin of values: ChEMBL document CHEMBL2401640
